- Test system: Mus musculus
- assay-explanation: Antihypoxic effect tested by the ratio of survival time (SVT) of test mice to that of control group, dosed orally 30 mg/kg
- Type: functional
- study-conditions: route oral
quantity-kind: SVT

>>> observed_value("Cc1cc(C)c2c(c1O)C(NC(=O)CN1CCN(c3ccc(F)cc3)CC1)C(C)(C)C2 (stereo not drawn)")
"96.2%"
>>> observed_value("CCC(C)c1cc(C)c2c(c1O)C(NC(=O)CN1CCN(c3cc(Cl)cc(Cl)c3)CC1)CC2 (stereo not drawn)")
"113.2%"
>>> observed_value("Cc1cc(C)c2c(c1O)C(NC(=O)CN1CCN(c3cccc(Cl)c3Cl)CC1)C(C)(C)C2 (stereo not drawn)")
"94.6%"

###

Quick reference for SVT among some compounds
- System: Mus musculus
- assay-explanation: Antihypoxic effect tested by the ratio of survival time (SVT) of test mice to that of control group, dosed orally 30 mg/kg
- Type: functional
- study-conditions: route oral
quantity-kind: SVT (%)

>>> observed_value("CCC(C)c1cc(C)c2c(c1O)C(N)CC2 (stereo unspecified)")
166.5
>>> observed_value("COc1cccc(N2CCN(CC(=O)NC3c4c(c(C)cc(C)c4OC)CC3(C)C)CC2)c1 (stereo unspecified)")
93.4
>>> observed_value("Cc1cc(C)c2c(c1O)C(NC(=O)CN1CCN(c3cccc(Cl)c3)CC1)C(c1ccc(Cl)cc1)C2 (stereo unspecified)")
81.3
>>> observed_value("Cc1cc(C)c2c(c1O)C(NC(=O)CN1CCCC1C(=O)O)C(C)(C)C2 (stereo unspecified)")
92.3
>>> observed_value("CCCc1cc(C)c2c(c1O)C(NC(=O)CN1CCN(c3cccc(OC)c3)CC1)C(C)(C)C2 (stereo unspecified)")
95
>>> observed_value("CCC(C)c1cc(C)c2c(c1O)C(NC(=O)CN1CCN(c3cccc(Cl)c3Cl)CC1)CC2 (stereo unspecified)")
119.2
>>> observed_value("Cc1cc(C)c2c(c1O)C(NC(=O)CN1CCN(c3ccc([N+](=O)[O-])cc3)CC1)C(C)(C)C2 (stereo unspecified)")
107.9
>>> observed_value("COc1cccc(N2CCN(CCC(=O)NC3c4c(O)c(C)cc(C)c4CC3(C)C)CC2)c1 (stereo unspecified)")
91.8
>>> observed_value("Cc1cc(C)c2c(c1O)C(NC(=O)CN1CCN(c3ccccc3Cl)CC1)C(C)(C)C2 (stereo unspecified)")
117.3
>>> observed_value("COc1ccccc1N1CCN(CC(=O)NC2c3c(O)c(C)cc(C)c3CC2(C)C)CC1 (stereo unspecified)")
94.4
>>> observed_value("CCC(C)c1cc(C)c2c(c1O)C(NC(=O)CN1CCN(c3cccc(C)c3)CC1)CC2 (stereo unspecified)")
110.5
>>> observed_value("Cc1cc(C)c2c(c1O)C(NC(=O)Cn1ccnc1)C(C)(C)C2 (stereo unspecified)")
71.8
>>> observed_value("Cc1cc(C)c2c(c1O)C(NC(=O)CN1CCN(c3cccc(F)c3)CC1)C(C)(C)C2 (stereo unspecified)")
122.7
>>> observed_value("Cc1ccccc1C1Cc2c(C)cc(C)c(O)c2C1NC(=O)CN1CCN(c2cccc(Cl)c2)CC1 (stereo unspecified)")
123.7
>>> observed_value("Cc1cc(C)c2c(c1O)C(NC(=O)CN1CCN(c3ccccc3F)CC1)C(C)(C)C2 (stereo unspecified)")
99.9
>>> observed_value("Cc1cc(C)c(N2CCN(CC(=O)NC3c4c(O)c(C)cc(C)c4CC3(C)C)CC2)c(C)c1 (stereo unspecified)")
100.3
